The values you see were collected from paper PMC4550876.

Readings of inhibition at 20 µM for the listed compounds
target: V30M mutated TTR (Homo sapiens, UniProt P02766, V50M); construct: made in house; assay: Acid-mediated aggregation experiment (thioflavin T assay) of amyloid fibril formation; format: biochemical; settings: 20 μM compound, 10 μM V30M, pH 4.5, 310 K, 96 h; read-out: Inhibition ratio at 20 μM

[[record]]
compound = "O=C(O)c1cc(-c2ccc(F)cc2F)ccc1O [diflunisal, reference compound]"
value_observed = "97%"

[[record]]
compound = "CC(C)=CCc1c(O)cc2oc3ccc(O)cc3c(=O)c2c1O [Compound 9, 1,3,7-trihydroxy-2-prenylxanthone]"
value_observed = "67%"

[[record]]
compound = "COc1c(O)cc2oc3cc4c(c(O)c3c(=O)c2c1CC=C(C)C)CCC(C)(C)O4 [Compound 2, 3-isomangostin]"
value_observed = "32%"


Now for a further compound.
Record summary for O=c1c2cc(O)c(O)cc2oc2cccc(O)c12 [Compound 11, 1,6,7-trihydroxyxanthone] : reported inhibition at 20 µM = 64%
